The reported numbers originate from PubChem BioAssay AID434959.

Test: YB-1 transcript reduction by qRT-PCR – cell-based, fluorescence, primary screen (AID 434959);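 note: higher means less YB-1 transcript or more CDIP transcript relative to DMSO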
Conditions: U2OS, qRT-PCR YB-1 vs CDIP delta delta Cp, 16 h; stronger effect = higher value; zero = DMSO, each unit about twofold
The campaign covered roughly 30,000 compounds. About 110 (0.37%) were called active. The sample as a whole holds a higher share of actives than the screen did.
Each entry gets no if its delta Cp (YB-1 minus CDIP) stays under -0.06, and yes if its delta Cp (YB-1 minus CDIP) is -0.06 or above.

Some solved cases for reference:
[
  {
    "CHEMICAL STRUCTURE": "COc1ccc(NC(=O)N(C)C[C@H]2Oc3ccc(NS(=O)(=O)c4ccc(F)cc4)cc3C(=O)N([C@@H](C)CO)C[C@@H]2C)cc1",
    "ASSIGNED LABEL": "yes"
  },
  {
    "CHEMICAL STRUCTURE": "CC(=O)N1[C@@H](c2ccc(C)cc2)SC(C)(C)[C@@H]1C(=O)O",
    "ASSIGNED LABEL": "no"
  },
  {
    "CHEMICAL STRUCTURE": "O=C(O)CCCCCCC(=O)NN=C1CCCCCC1",
    "ASSIGNED LABEL": "no"
  }
]

Pending compound:
Data request: Hi team, for CCc1c(C)n([O-])c2c([n+]1=O)CCCCC2 , is the recorded delta Cp (YB-1 minus CDIP) at or above -0.06?
Data returned: yes

====

Test: YB-1 transcript reduction by qRT-PCR – cell-based, fluorescence, primary screen (AID 434959);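 note: higher means less YB-1 transcript or more CDIP transcript relative to DMSO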
Settings: U2OS, qRT-PCR YB-1 vs CDIP delta delta Cp, 16 h; zero = DMSO, each unit about twofold
The whole screen tested about 30,000 compounds, of which about 110 (0.37%) were called active.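 How the source made its calls: active means delta delta Cp rounded down to an integer at or above 3, about 3 SD of DMSO wells; inactive means the rest.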 The full list was thinned out, with actives kept by preference.
Tick one outcome: active, inactive

Take a look at these entries with their results.
[
  {
    "CHEMICAL STRUCTURE": "C[C@@H]1CN([C@H](C)CO)C(=O)Cc2cc(NS(=O)(=O)c3ccc(F)cc3)ccc2O[C@@H]1CN(C)S(=O)(=O)c1ccc(F)cc1",
    "ASSIGNED LABEL": "inactive"
  },
  {
    "CHEMICAL STRUCTURE": "C[C@H](CO)N1C[C@H](C)[C@@H](CN(C)Cc2ccc(Oc3ccccc3)cc2)OCc2cn(nn2)CCCC1=O",
    "ASSIGNED LABEL": "inactive"
  },
  {
    "CHEMICAL STRUCTURE": "O=C(N/N=C/[C@H](O)[C@@H](O)[C@H](O)[C@H](O)CO)c1ccccc1O",
    "ASSIGNED LABEL": "inactive"
  },
  {
    "CHEMICAL STRUCTURE": "Cc1onc(-c2c(Cl)cccc2Cl)c1C(=O)N=S(C)(C)=O",
    "ASSIGNED LABEL": "inactive"
  },
  {
    "CHEMICAL STRUCTURE": "C[C@@H]1CN([C@@H](C)CO)C(=O)CCCn2nncc2CO[C@H]1CN(C)Cc1ccc(C(F)(F)F)cc1",
    "ASSIGNED LABEL": "inactive"
  }
]

Data request: Hey, what did the test say about O=C(N/N=C/c1cc(F)ccc1O)c1ccccc1O ?
Data returned: inactive

Data request: For C[C@H](CO)N1C[C@H](C)[C@H](CN(C)C(=O)Nc2ccc(C(F)(F)F)cc2)Oc2ccc(N(C)C)cc2CC1=O , which call appears in the assay record?
Data returned: inactive

Data request: Could you kindly confirm the outcome this assay logged for C[C@@H]1CN([C@@H](C)CO)C(=O)c2cccc(NC(=O)Nc3ccc4c(c3)OCO4)c2O[C@H]1CN(C)C(=O)Nc1cccc2ccccc12 ?
Data returned: inactive

Data request: For C[C@@H]1CN([C@H](C)CO)C(=O)c2cc(NC(=O)Nc3ccc4c(c3)OCO4)ccc2O[C@H]1CN(C)Cc1ccc(-c2ccccc2)cc1 , what call appears in the results of this test?
Data returned: inactive

Data request: Recorded test call requested for C[C@H]1CN([C@@H](C)CO)C(=O)c2cc(NC(=O)C3CCCCC3)ccc2O[C@H]1CN(C)S(=O)(=O)c1cn(C)cn1
Data returned: inactive

Data request: For C[C@H](CO)N1C[C@H](C)[C@H](CN(C)Cc2ccc(-c3ccccc3)cc2)Oc2ccc(NC(=O)Nc3ccc(F)cc3)cc2CC1=O , what call appears in the results of this test?
Data returned: inactive

Data request: I would be grateful if you could indicate the recorded call for C[C@H]1CN([C@@H](C)CO)C(=O)c2cccc(NC(=O)c3cnccn3)c2O[C@H]1CN(C)S(=O)(=O)c1cn(C)cn1 .
Data returned: inactive

Data request: Which result was noted for this compound in the test: Cc1noc(C)c1NC(=O)Nc1ccc2c(c1)C(=O)N([C@H](C)CO)C[C@H](C)[C@H](CN(C)Cc1ccncc1)OCCCC[C@@H](C)O2
Data returned: inactive

====

Experiment: YB-1 transcript reduction by qRT-PCR – cell-based, fluorescence, primary screen (AID 434959);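 note: higher means less YB-1 transcript or more CDIP transcript relative to DMSO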
Conditions: U2OS, qRT-PCR YB-1 vs CDIP delta delta Cp, 16 h; stronger effect = higher value; zero = DMSO, each unit about twofold
About 110 (0.37%) of roughly 30,000 compounds were called active. This excerpt belongs to a sample that is enriched for actives.
READOUT LABEL: delta Cp (YB-1 minus CDIP)
Kindly provide the number alone.

[
  {
    "COMPOUND": "O=C1C2CC3CC1CC(C(=O)O)(C3)C2",
    "READOUT LABEL": "delta Cp (YB-1 minus CDIP)",
    "OBSERVED": 0.106
  },
  {
    "COMPOUND": "Cc1ccc(-n2c(C)nc3sc4c(c3c2=O)CCC4)cc1",
    "READOUT LABEL": "delta Cp (YB-1 minus CDIP)",
    "OBSERVED": 5.31
  },
  {
    "COMPOUND": "O=C1O[C@@H](c2ccccc2)[C@@H](c2ccccc2)N2[C@@H](c3ccccc3OCCO)[C@]3(C(=O)Nc4ccc(C#CC5(O)CCCCCC5)cc43)[C@@H](C(=O)N3CCN(c4ncccn4)CC3)[C@H]12",
    "READOUT LABEL": "delta Cp (YB-1 minus CDIP)",
    "OBSERVED": -0.244
  }
]

Data request: Item C[C@@H]1CN([C@H](C)CO)C(=O)c2cc(NS(=O)(=O)c3ccccc3)ccc2O[C@H]1CN(C)S(=O)(=O)c1cccs1 has what recorded delta Cp (YB-1 minus CDIP)?
Data returned: 0.37

Data request: Which measured delta Cp (YB-1 minus CDIP) value corresponds to C[C@@H]1CN([C@H](C)CO)C(=O)c2cccc(NC(=O)CCCCCC(=O)Nc3ccccc3N)c2O[C@@H]1CN(C)C(=O)Nc1ccccc1 ?
Data returned: 0.438

Data request: Quick one: delta Cp (YB-1 minus CDIP) of C[C@@H]1CN([C@H](C)CO)C(=O)c2cccc(NC(=O)Nc3ccc4c(c3)OCO4)c2O[C@@H]1CN(C)Cc1ccccc1 ?
Data returned: -0.407

====

Assay: YB-1 transcript reduction by qRT-PCR – cell-based, fluorescence, primary screen (AID 434959);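 note: higher means less YB-1 transcript or more CDIP transcript relative to DMSO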
Conditions: U2OS, qRT-PCR YB-1 vs CDIP delta delta Cp, 16 h; stronger effect = higher value; zero = DMSO, each unit about twofold
Hit rate of the full screen: of about 30,000 compounds, about 110 (0.37%) were called active. The entries come from a sample that favours actives as a whole.
Label 1.0 when delta Cp (YB-1 minus CDIP) is at or above -0.2; otherwise label 0.0.

Use these answered entries as a reference point.
[
  {
    "CHEMICAL STRUCTURE": "C[C@@H]1CN([C@H](C)CO)C(=O)c2cc(NC(=O)CCCN(C)C)ccc2O[C@H]1CN(C)Cc1ccc(C(=O)O)cc1",
    "ASSIGNED LABEL": 0.0
  },
  {
    "CHEMICAL STRUCTURE": "COC(=O)CCCCCCC(=O)N/N=C/c1ccc(C(=O)O)cc1",
    "ASSIGNED LABEL": 0.0
  }
]

Data request: Reported delta Cp (YB-1 minus CDIP) reaches at least -0.2 for COc1ccc(OC)c(CCCc2cc(OC)ccc2OC)c1 ?
Data returned: 1.0

Data request: Threshold query (delta Cp (YB-1 minus CDIP) >= -0.2) on C[C@H](CO)N1C[C@H](C)[C@H](CN(C)S(=O)(=O)c2cccs2)Oc2ccc(NS(=O)(=O)c3ccccc3)cc2C1=O
Data returned: 0.0

Data request: Check the entry C[C@H]1CN([C@@H](C)CO)C(=O)CCCn2cc(nn2)CO[C@H]1CN(C)S(=O)(=O)c1ccc2ccccc2c1 : does delta Cp (YB-1 minus CDIP) equal or exceed -0.2?
Data returned: 1.0
